molecular target: UniProt Q14790
Sequence (Q14790 217-374 limits assumed): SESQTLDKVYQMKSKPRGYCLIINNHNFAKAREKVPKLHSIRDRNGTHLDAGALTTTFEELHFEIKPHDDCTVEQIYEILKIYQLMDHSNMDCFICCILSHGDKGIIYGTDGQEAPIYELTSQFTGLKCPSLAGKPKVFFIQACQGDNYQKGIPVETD
Sequence (Q14790 385-479 limits assumed): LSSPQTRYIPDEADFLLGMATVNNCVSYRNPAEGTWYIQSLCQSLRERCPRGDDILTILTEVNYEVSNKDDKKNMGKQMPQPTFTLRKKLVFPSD
Experimental readout: IC50 (µM)
Express your answer in µM, writing the number without its unit.

Compound	Experimental readout	Observed result
COc1ccccc1NC(=O)CCC(=O)Nc1ccc2c(c1)C(=O)C(=O)NC2=O	IC50	0.835

Proceed to the following item.
Asked: // IC50 lookup, key: CC(=O)OC(C(=O)Nc1cccc2c1C(=O)C(=O)NC2=O)c1ccccc1 (configuration not stated)
Given back: 0.425

---

Reported IC50 values for a set of compounds
Target chain: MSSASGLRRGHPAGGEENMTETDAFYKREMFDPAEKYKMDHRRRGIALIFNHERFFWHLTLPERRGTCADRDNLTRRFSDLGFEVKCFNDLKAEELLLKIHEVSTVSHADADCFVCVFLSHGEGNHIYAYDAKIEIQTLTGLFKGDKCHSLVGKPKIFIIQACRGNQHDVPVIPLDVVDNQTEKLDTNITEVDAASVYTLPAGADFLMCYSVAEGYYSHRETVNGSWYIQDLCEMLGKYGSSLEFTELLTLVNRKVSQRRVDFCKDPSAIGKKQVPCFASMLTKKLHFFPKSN
Put your answer as a value accompanied by its unit after it.

Smiles repr	IC50
O=C1NC(=O)c2ccccc2C1=O	0.474 µM
O=C(CCC(=O)N1CCCCC1)Nc1ccc2c(c1)C(=O)C(=O)NC2=O	0.124 µM
O=C1NC(=O)c2cc(NC(=O)c3ccc([N+](=O)[O-])cc3)ccc2C1=O	2.85 µM

Proceed to the following item.
Asked: // IC50 lookup, key: COc1ccccc1NC(=O)CCC(=O)Nc1ccc2c(c1)C(=O)C(=O)NC2=O
Given back: 0.137 µM

---

Measured pIC50 (Caspase-2 (Homo sapiens, UniProt P42575))
Please express pIC50 as -log10 of the molar concentration.

Molecule	Experimental readout	Observed result
O=C(CCC(=O)N1CCCCC1)Nc1ccc2c(c1)C(=O)C(=O)NC2=O	pIC50	6.64
CC(=O)OC(C(=O)Nc1cccc2c1C(=O)C(=O)NC2=O)c1ccccc1 (centres undefined)	pIC50	6.63
O=C1NC(=O)c2ccccc2C1=O	pIC50	5.82

Proceed to the following item.
Asked: // pIC50 lookup, key: COc1ccccc1NC(=O)CCC(=O)Nc1ccc2c(c1)C(=O)C(=O)NC2=O
Given back: 6.27
